target: KpDnaB helicase (Klebsiella pneumoniae, UniProt A6TGW0 1-471); assay: EMSA; 16.7 uM kaempferol; apparent Kd; 20 mM HEPES pH 7.0, 100 mM NaCl, 25 C, 30 min, 1.7 nM dT30, no Mg2+ or nucleotide stated; native 8% PAGE in TBE at 4 C
READOUT TYPE: Kd (nM)

1) TTTTTTTTTTTTTTTTTTTTTTTTTTTTTT (ssDNA) [dT30]
1100
